- assay.target: X-box-binding protein 1 (Homo sapiens) (UniProt P17861)
- Sequence (P17861 whole entry, looked up): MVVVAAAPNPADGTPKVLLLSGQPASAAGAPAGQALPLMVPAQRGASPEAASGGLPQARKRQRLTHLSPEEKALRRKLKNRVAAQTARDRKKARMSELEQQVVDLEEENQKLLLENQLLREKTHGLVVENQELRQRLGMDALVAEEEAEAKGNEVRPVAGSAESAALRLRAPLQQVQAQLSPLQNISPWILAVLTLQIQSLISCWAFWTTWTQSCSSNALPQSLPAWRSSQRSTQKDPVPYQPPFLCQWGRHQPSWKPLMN
- protocol.text: ATG_Xbp1_CIS: Attagene CIS-FACTORIAL HepG2 Assay for human X-box Binding Protein 1 (XBP1) (AID 2282972)
- setup.conditions: HepG2 XBP1 cis-element reporter, Attagene multiplex; actives raise or lower the signal
Activity calls are given as the source filed them. How the source made its calls: active means hit-call score of the fitted dose curve at least 0.9, where 1 is the maximum; inactive means score below 0.9.
Choose one outcome from this list and give only that: active, inactive

{"molecule": "O=C(Cl)c1ccc(Cl)cc1", "label": "inactive"}
{"molecule": "N#CCc1ccc(Cl)cc1", "label": "inactive"}
{"molecule": "O=Cc1cccc(Oc2ccccc2)c1", "label": "inactive"}
{"molecule": "O=P(O)(O)CN(CP(=O)(O)O)CP(=O)(O)O", "label": "inactive"}

Q: Can you look up the reported call for CC(C#N)CCC#N (stereo not drawn) for me?
Ans: inactive

Q: Look up the recorded call for `Cc1ccccc1N` in this test.
Ans: inactive

Q: I'd appreciate the recorded outcome for CC(=O)C(Cl)C(=O)N(C)C (stereo not drawn) from this test.
Ans: inactive

* * *

- protocol.text: ATG_VDRE_CIS: Attagene CIS-FACTORIAL HepG2 Assay for human Vitamin D Receptor Element (VDRE) (AID 2282968)
- setup.conditions: HepG2 VDRE cis-reporter transcription, actives raise or lower the signal
The source made the active and inactive calls. The calls were made as follows: active = hit-call score of the fitted dose curve at least 0.9, where 1 is the maximum; inactive = score below 0.9.
Hi! Could you answer with just one of these? active, inactive

Completed entries (count: 10):
{"compound": "CCc1ccccc1C", "label": "inactive"}
{"compound": "CC(C)OC(=O)Nc1ccccc1", "label": "inactive"}
{"compound": "C=C(C)C(=O)[O][Sn]([CH2]CCC)([CH2]CCC)[CH2]CCC", "label": "active"}
{"compound": "CCC(=O)c1ccccc1", "label": "inactive"}
{"compound": "COC[C@H](C)N(C(=O)CCl)c1c(C)csc1C", "label": "active"}
{"compound": "CC(=O)C=C(C)C", "label": "inactive"}
{"compound": "O=C(NCO)NCO", "label": "inactive"}
{"compound": "O=C(O)C(Cl)(Cl)Cl", "label": "inactive"}
{"compound": "Nc1ncc([N+](=O)[O-])s1", "label": "inactive"}
{"compound": "Cn1sc(Cl)cc1=O", "label": "inactive"}

Q: Per the records of this test, what outcome belongs to `COP(=O)(OC)OC` ?
Ans: inactive

Q: I would be grateful if you could indicate the recorded call for CC(C)C1CCC(Cc2ccc(Cl)cc2)C1(O)Cn1cncn1 (configuration not stated) .
Ans: active

Q: Can you look up the reported call for `NNC(=S)NN` for me?
Ans: inactive

Q: Any idea what this test logged for `COS(=O)(=O)c1ccc(C)cc1` ?
Ans: inactive

Q: Please share the test call associated with CCCCC(CC)CO[N+](=O)[O-] (configuration not stated) .
Ans: active

* * *

- protocol.text: ATG_AP_1_CIS: Attagene CIS-FACTORIAL HepG2 Assay for human Activator Protein 1 (AP-1) (AID 2282931)
- setup.conditions: HepG2 Attagene cis-factorial AP-1 reporter mRNA; actives raise or lower the signal
Activity calls are given as the source filed them. The calls were made as follows: active = hit-call score of the fitted dose curve at least 0.9, where 1 is the maximum; inactive = score below 0.9.
Reply using exactly one outcome from active, inactive

Use these answered entries as a reference point.
{"molecule": "C=CC(=O)N(C)C", "label": "inactive"}
{"molecule": "CC(C)c1cccc(C(C)C)c1O", "label": "inactive"}
{"molecule": "CN(C)P(=O)(N(C)C)N(C)C", "label": "inactive"}
{"molecule": "COc1ccc(C=O)cc1OC", "label": "inactive"}
{"molecule": "CCC(C)(C)c1ccc(O)c(C(C)(C)CC)c1", "label": "active"}

Q: Please let me know the test result on file for `CC(C)OC(=O)Nc1ccccc1` .
Ans: inactive

Q: How did this test come out for CCC(C)c1cccc(C(C)CC)c1O (stereo unspecified) ?
Ans: inactive

Q: Hey, what did the test say about `COc1cc2c(cc1OC)[C@@]13CCN4CC5=CCO[C@H]6CC(=O)N2[C@H]1[C@H]6[C@H]5C[C@H]43` ?
Ans: inactive

Q: Name the outcome recorded for CC(C)C1CCC(Cc2ccc(Cl)cc2)C1(O)Cn1cncn1 (stereo unspecified) in the assay.
Ans: active

Q: Per the assay record, what outcome was assigned to `CCCCP(CCCC)CCCC` ?
Ans: inactive

Q: Hi, do you know how `CC(=O)[O][Hg][c]1ccccc1` came out in this test?
Ans: inactive

Q: Tell me the recorded outcome of this test for `O=C1CCCN1` .
Ans: inactive

Q: For Clc1ccc(C2(Cn3cncn3)CC(Br)CO2)c(Cl)c1 (stereo unspecified) , what call appears in the results of this test?
Ans: active

Q: // return assay outcome for `O=C1C(Cl)=C(Cl)C(=O)c2ccccc21`
Ans: inactive

Q: Can you look up the reported call for ClC1(Cl)C2(Cl)C3(Cl)C4(Cl)C(Cl)(Cl)C5(Cl)C3(Cl)C1(Cl)C5(Cl)C24Cl (stereo unspecified) for me?
Ans: inactive

Q: In this assay, the call recorded for `COC(=O)Cc1ccccc1` was what?
Ans: inactive

* * *

- Read-out: Monokine induced gamma interferon (MIG), CXCL9 (gene 4283)
- protocol.text: BSK_SAg_MIG: BioMAP Diversity Plus: SAg Assay for Monokine induced gamma interferon (MIG) Biomarker Activity (AID 2283092)
- setup.conditions: primary human HUVEC with PBMC; actives raise or lower the signal
Calls of active or inactive are those of the source. Rule for the calls: active = hit-call score of the fitted dose curve at least 0.9, where 1 is the maximum; inactive = score below 0.9.
parameter: AC50

{"compound": "CC(=O)OC(c1ccccc1)C(Cl)(Cl)Cl (stereo unspecified)", "result": "inactive"}
{"compound": "CCNc1nc(NC(C)(C)C)nc(SC)n1", "result": "inactive"}
{"compound": "Nc1ncc([N+](=O)[O-])s1", "result": "inactive"}
{"compound": "Oc1cccc2cccnc12", "result": "inactive"}

Q: Given the compound `O=[N+]([O-])c1ccc2c3c(cccc13)CC2` , what is its reported AC50?
Ans: inactive

Q: Name the recorded AC50 for `BrCCBr` .
Ans: inactive

Q: Using the record for `CC(C)(C)c1cc(O)ccc1O` , report its AC50.
Ans: 11.4 µM (active)

Q: Returns the measured AC50 for the input compound. Input: `C=C(C)C(=O)[O][Sn]([CH2]CCC)([CH2]CCC)[CH2]CCC`
Ans: 0.148 µM (active)

Q: Which measured AC50 value corresponds to `OCc1ccco1` ?
Ans: inactive

Q: Would you kindly share the measured AC50 for `O=C(Nc1ccc2[nH]ccc2c1)c1cc2cc(F)ccc2n1Cc1cccc(F)c1` ?
Ans: 12.7 µM (active)

Q: Can you share its AC50? I mean this compound: CC12CC1(C)C(=O)N(c1cc(Cl)cc(Cl)c1)C2=O (stereo unspecified)
Ans: inactive

* * *

- protocol.text: ATG_RORE_CIS: Attagene CIS-FACTORIAL HepG2 Assay for human RAR-related Orphan Receptor Element (RORE) (AID 2282959)
- setup.conditions: HepG2 Attagene cis-factorial RORE reporter, mRNA; actives raise or lower the signal
Active and inactive are the calls of the source. The calls were made as follows: active = hit-call score of the fitted dose curve at least 0.9, where 1 is the maximum; inactive = score below 0.9.
# output must be one of t = active, f = inactive

{"compound": "COP(=O)(OC)O/C(=C\\Cl)c1cc(Cl)c(Cl)cc1Cl", "label": "f"}
{"compound": "CCCCCCCCC(=O)NCc1ccc(O)c(OC)c1", "label": "f"}
{"compound": "CC(C)c1ccc(CO)cc1", "label": "f"}

Q: Could you kindly confirm the outcome this assay logged for `C[C@]12CC[C@H](O)CC1=CC[C@@H]1[C@@H]2CC[C@]2(C)C(=O)CC[C@@H]12` ?
Ans: f

Q: Hey, what did the test say about `O=CC=O` ?
Ans: f

Q: Record lookup: outcome of this test for `CC1(C)Cc2cccc(O)c2O1` ?
Ans: f

Q: Tell me the assay call for `C[C@H]1CCCC(=O)CCC/C=C/c2cc(O)cc(O)c2C(=O)O1` please.
Ans: f

Q: Please share the test call associated with `ClCC(Cl)CCl` .
Ans: f

Q: Recorded test outcome, item CC(Br)C(=O)O (stereo not drawn)
Ans: f

Q: Just curious, what result did `CC(C)(C)c1cc(O)ccc1O` get here?
Ans: t

Q: Identify the outcome logged in this assay for the compound shown: `O=c1[nH]c(=O)[nH]c(=O)[nH]1`
Ans: f

Q: Identify the outcome logged in this assay for the compound shown: `N#Cc1ccccn1`
Ans: f

Q: Give the logged outcome of this assay for the following compound: `CC(=[OH+])/C=C(/C)[O-].CC(=[OH+])/C=C(/C)[O-].CC(=[OH+])/C=C(/C)[O-].[Fe]`
Ans: f

Q: Write down the call the test reported for this compound. Item: `NC(=S)Nc1ccccc1`
Ans: f

Q: How did this test come out for `CN(C)P(=O)(N(C)C)N(C)C` ?
Ans: f

* * *

- Read-out: Heat shock 70 kDa protein 1 (HSPA1A), gene 3303
- protocol.text: LTEA_HepaRG_HSPA1A: Life Technologies and Expression Analysis (LTEA) Assay for Heat shock 70 kDa protein 1 (HSPA1A) using HepaRG (AID 2283502)
- setup.conditions: mRNA level, 48 h; actives raise or lower the signal
Calls of active or inactive are those of the source. The calls were made as follows: active = hit-call score of the fitted dose curve at least 0.9, where 1 is the maximum; inactive = score below 0.9.
// one of yes = active, no = inactive, no free text

Solved cases below.
{"compound": "CC(C)(c1ccccc1)c1ccc(O)c(C(C)(C)c2ccccc2)c1", "label": "yes"}
{"compound": "O=C1C2(Cl)C3(Cl)C4(Cl)C(Cl)(Cl)C5(Cl)C3(Cl)C1(Cl)C5(Cl)C24Cl (stereo not drawn)", "label": "yes"}

Q: What did this assay record as the result for ClC1(Cl)C2(Cl)C3(Cl)C4(Cl)C(Cl)(Cl)C5(Cl)C3(Cl)C1(Cl)C5(Cl)C24Cl (stereo not drawn) ?
Ans: no
